subject-of-test: TMPRSS2 (Homo sapiens, UniProt O15393)
Construct: purchased Cusabio
Sequence (O15393 whole entry): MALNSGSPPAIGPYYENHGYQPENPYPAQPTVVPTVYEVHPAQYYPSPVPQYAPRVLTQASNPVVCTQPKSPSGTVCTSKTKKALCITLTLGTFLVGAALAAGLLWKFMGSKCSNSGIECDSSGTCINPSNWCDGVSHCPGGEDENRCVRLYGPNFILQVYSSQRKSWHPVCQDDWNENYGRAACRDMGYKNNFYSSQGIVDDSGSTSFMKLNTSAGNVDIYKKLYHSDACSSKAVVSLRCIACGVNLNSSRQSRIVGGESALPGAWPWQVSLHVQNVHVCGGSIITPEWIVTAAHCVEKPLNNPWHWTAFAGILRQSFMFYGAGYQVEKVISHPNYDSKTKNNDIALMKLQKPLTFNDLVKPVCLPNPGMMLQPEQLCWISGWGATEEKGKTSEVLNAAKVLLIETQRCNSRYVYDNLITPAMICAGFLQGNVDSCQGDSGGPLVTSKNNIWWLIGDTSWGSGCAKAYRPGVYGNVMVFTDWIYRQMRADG
procedure-summary: fluorometric enzyme inhibition assay, TMPRSS2 (Boc-Gln-Ala-Arg-AMC)
Assay type: biochemical
conditions-used: quotient Ki TMPRSS2 / Ki uPA
Would you kindly list Selectivity index [SI] TMPRSS2 for each of these compounds?
Lab note: jot down the number only; don't add units.

Input CC(=O)NCC(=O)NC(C(=O)NC(C)C(=O)NC(CC1CCC(NC(=N)N)CC1)C(=O)c1nc2ccccc2s1)C(C)O (centres unmarked) . Output Selectivity index [SI] TMPRSS2: 1.8

Input CC(=O)NCC(=O)NC(C(=O)NC(C)C(=O)NC(CCCNC(=N)N)C(=O)c1nc2ccccc2s1)C(C)O [Compound 14a, Ac-Gly-L-Thr-L-Ala-L-Arg-kbt] . Output Selectivity index [SI] TMPRSS2: 0.04

Input CC(=O)NCC(=O)NC(C(=O)NC(C)C(=O)NC(Cc1ccc(NC(=N)N)cc1)C(=O)c1nc2ccccc2s1)C(C)O (centres unmarked) . Output Selectivity index [SI] TMPRSS2: 0.3

Input CC(=O)NCC(=O)NC(C(=O)NC(C)C(=O)NC(CCCNC(=N)N)C(=O)c1nc2ccc(Br)cc2s1)C(C)O (centres unmarked) [Compound 14d] . Output Selectivity index [SI] TMPRSS2: 0.1

Input CC(=O)NCC(=O)NC(C(=O)NC(C)C(=O)NC(CCCNC(=N)N)C(=O)c1nc2ccc(Cl)cc2s1)C(C)O (centres unmarked) [Compound 14c] . Output Selectivity index [SI] TMPRSS2: 0.1

---

subject-of-test: matriptase (Homo sapiens)
Construct: catalytic domain of matriptase (uniport: Q9Y5Y6 aa 596–855); hexa-histidine (N); made in house; host or cells: Escherichia coli BL21 Gold (DE3)
procedure-summary: fluorometric enzyme inhibition assay, matriptase (Boc-Leu-Arg-Arg-AMC)
Assay type: biochemical
conditions-used: from IC50 by Cheng-Prusoff; n.a. = not active, <80% inhibition at 20 µM
Would you kindly list Ki for each of these molecules?
Dear colleague, please return just the value in nM, with no unit written.

Input CC(=O)N[C@@H](Cc1ccccc1)C(=O)N[C@@H](Cc1ccc(NC(=N)N)cc1)C(=O)c1nc2ccccc2s1 . Output Ki: 1440

Input CC(=O)NCC(=O)NC(C(=O)NC(C)C(=O)NC(CCCNC(=N)N)C(=O)c1nc2ccc(Cl)cc2s1)C(C)O (stereo not drawn) [Compound 14c] . Output Ki: 59

Input CC(=O)NCC(=O)NC(C(=O)NC(C)C(=O)NC(CCCNC(=N)N)C(=O)c1nc2ccc(Br)cc2s1)C(C)O (stereo not drawn) [Compound 14d] . Output Ki: 38

---

subject-of-test: matriptase (Homo sapiens)
Construct: catalytic domain of matriptase (uniport: Q9Y5Y6 aa 596–855); hexa-histidine (N); made in house; host or cells: Escherichia coli BL21 Gold (DE3)
Sequence (Q9Y5Y6 596-855): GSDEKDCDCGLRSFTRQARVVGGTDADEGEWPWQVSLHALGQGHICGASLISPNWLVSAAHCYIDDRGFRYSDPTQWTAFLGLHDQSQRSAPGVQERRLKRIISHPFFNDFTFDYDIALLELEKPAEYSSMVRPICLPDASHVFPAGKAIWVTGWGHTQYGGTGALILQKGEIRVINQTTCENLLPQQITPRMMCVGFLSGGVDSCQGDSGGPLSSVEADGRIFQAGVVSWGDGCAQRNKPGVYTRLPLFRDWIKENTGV
procedure-summary: fluorometric enzyme inhibition assay, matriptase (Boc-Leu-Arg-Arg-AMC)
Type: biochemical
conditions-used: quotient Ki matriptase / Ki uPA
readout-label: Selectivity index [SI] Matriptase
Lab note: jot down the number only; don't add units.

Input CC(=O)NCC(=O)NC(C(=O)NC(C)C(=O)NC(CCCNC(=N)N)C(=O)c1nc2ccccc2s1)C(C)O [Compound 14a, Ac-Gly-L-Thr-L-Ala-L-Arg-kbt] . Output Selectivity index [SI] Matriptase: 0.2

Input CC(=O)NCC(=O)NC(C(=O)NC(C)C(=O)NC(CCCNC(=N)N)C(=O)c1nc2ccc(Br)cc2s1)C(C)O (centres unmarked) [Compound 14d] . Output Selectivity index [SI] Matriptase: 0.6

Input CC(=O)NCC(=O)NC(C(=O)NC(C)C(=O)NC(CC1CCC(NC(=N)N)CC1)C(=O)c1nc2ccccc2s1)C(C)O (centres unmarked) [Compound 38] . Output Selectivity index [SI] Matriptase: 16

Input CC(=O)NCC(=O)NC(C(=O)NC(C)C(=O)NC(Cc1ccc(NC(=N)N)cc1)C(=O)c1nc2ccccc2s1)C(C)O (centres unmarked) [Compound 29] . Output Selectivity index [SI] Matriptase: 4

Input CC(=O)NCC(=O)NC(C(=O)NC(C)C(=O)NC(CCCNC(=N)N)C(=O)c1nc2ccc(Cl)cc2s1)C(C)O (centres unmarked) [Compound 14c] . Output Selectivity index [SI] Matriptase: 0.7
